experiment: Drug level in Lewis rat blood at 30 mg/kg, po administered as single dose measured 24 hrs post dose; details: read-out: Drug uptake

[
  {
    "smiles": "COC(=O)[C@H](CCN(C)C)N(C)C(=O)c1c(C)cc(-c2cccc(NS(=O)(=O)c3cc(C)c(Cl)cc3C)c2)cc1C",
    "concentration at 24 h (µg/mL)": 0.05
  }
]

###

target: UniProt:P21453; assay: Agonist activity at human S1P1R receptor expressed in CHO cell membranes by [35S]GTPgamma binding assay
Sequence (P21453 whole entry): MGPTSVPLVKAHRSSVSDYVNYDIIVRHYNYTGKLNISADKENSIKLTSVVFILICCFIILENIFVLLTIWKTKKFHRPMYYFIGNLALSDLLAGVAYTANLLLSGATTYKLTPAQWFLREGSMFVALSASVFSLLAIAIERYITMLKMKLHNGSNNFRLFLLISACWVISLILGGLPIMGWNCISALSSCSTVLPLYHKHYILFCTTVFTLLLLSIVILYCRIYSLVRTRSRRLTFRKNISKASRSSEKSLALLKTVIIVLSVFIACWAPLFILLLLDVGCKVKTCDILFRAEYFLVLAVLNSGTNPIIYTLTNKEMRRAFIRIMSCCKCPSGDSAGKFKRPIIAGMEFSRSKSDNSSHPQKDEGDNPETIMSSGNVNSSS

[
  {
    "smiles": "Cc1cc(S(=O)(=O)Nc2cccc(-c3cc(C)c(C(=O)N(C)[C@@H](CCN(C)C)C(=O)O)c(C)c3)c2)c(C)cc1Cl",
    "test-target": "UniProt:P21453",
    "EC50": "> 10 µM"
  }
]
